Tested on: Staphylococcus aureus
assay_comment: Antimicrobial activity against Staphylococcus aureus MB-2865
Format: functional
MIC listing for selected compounds.
The response must be a number in µg/mL with no trailing unit.

Worked examples, 3 compounds total:
COC(=O)CO/N=C/C1=C(C(=O)O)N2C(=O)[C@@H](NC(=O)Cc3cccs3)[C@H]2SC1 = 12.5
COC(=O)c1cc(C2=C(C(=O)O)N3C(=O)[C@@H](NC(=O)Cc4cccs4)[C@H]3SC2)n[nH]1 = 3.12
N#CC1=C(C(=O)O)N2C(=O)[C@@H](NC(=O)Cc3cccs3)[C@H]2SC1 = 0.78

Kindly consider the entry below.
// sample COC(=O)c1cc(C2=C(C(=O)O)N3C(=O)[C@@H](NC(=O)Cc4cccs4)[C@H]3SC2)nn1C , its MIC was 0.78

---

System: Streptococcus pyogenes
assay_comment: Antimicrobial activity against Streptococcus pyogenes MB-3124
Type: functional
measurement_kind: MIC

MIC reported for this compound CO/N=C/C1=C(C(=O)OC(c2ccccc2)c2ccccc2)N2C(=O)[C@@H](NC(=O)Cc3cccs3)[C@H]2SC1 : < 0.39 µg/mL

GET /value?item= O=CC1=C(C(=O)OC(c2ccccc2)c2ccccc2)N2C(=O)[C@@H](NC(=O)Cc3cccs3)[C@H]2SC1 &field=MIC returns < 0.39 µg/mL

Form field MIC, entry Cc1ccc(S(=O)(=O)N/N=C/C2=C(C(=O)OC(c3ccccc3)c3ccccc3)N3C(=O)[C@@H](NC(=O)Cc4cccs4)[C@H]3SC2)cc1 : < 0.39 µg/mL

Sample COC(=O)CO/N=C/C1=C(C(=O)O)N2C(=O)[C@@H](NC(=O)Cc3cccs3)[C@H]2SC1 ; MIC observed: < 0.39 µg/mL

Reported MIC ( N#CC1=C(C(=O)O)N2C(=O)[C@@H](NC(=O)Cc3cccs3)[C@H]2SC1 ) = < 0.39 µg/mL

// N#CC1=C(C(=O)OC(c2ccccc2)c2ccccc2)N2C(=O)[C@@H](NC(=O)Cc3cccs3)[C@H]2SC1 : MIC value = < 0.39 µg/mL

GET /value?item= Cc1ccc(S(=O)(=O)N(C)/N=C/C2=C(C(=O)OC(c3ccccc3)c3ccccc3)N3C(=O)[C@@H](NC(=O)Cc4cccs4)[C@H]3SC2)cc1 &field=MIC returns < 0.39 µg/mL

---

System: Streptococcus pyogenes
assay_comment: Antimicrobial activity against Streptococcus pyogenes MB-3124
Assay type: functional
measurement_kind: MIC

Worked cases, answers included:
COC(=O)C1=C(/C=N/N(C)S(=O)(=O)c2ccc(C)cc2)CS[C@@H]2[C@H](NC(=O)Cc3cccs3)C(=O)N12 = < 0.39 µg/mL
O=C(O)CO/N=C/C1=C(C(=O)OC(c2ccccc2)c2ccccc2)N2C(=O)[C@@H](NC(=O)Cc3cccs3)[C@H]2SC1 = < 0.39 µg/mL
COC(=O)c1[nH]nc(C2=C(C(=O)OC(c3ccccc3)c3ccccc3)N3C(=O)[C@@H](NC(=O)Cc4cccs4)[C@H]3SC2)c1C(=O)OC = < 0.39 µg/mL
COC(=O)CO/N=C/C1=C(C(=O)OC)N2C(=O)[C@@H](NC(=O)Cc3cccs3)[C@H]2SC1 = < 0.39 µg/mL
COC(=O)C1=C(/C=N/O)CS[C@@H]2[C@H](NC(=O)Cc3cccs3)C(=O)N12 = < 0.39 µg/mL

The recorded MIC for [N-]=[N+]=CC1=C(C(=O)OC(c2ccccc2)c2ccccc2)N2C(=O)[C@@H](NC(=O)Cc3cccs3)[C@H]2SC1 is < 0.39 µg/mL

Just so you know, measured MIC for COC(=O)C1=C(c2cc(-c3ccccc3)on2)CS[C@@H]2[C@H](NC(=O)Cc3cccs3)C(=O)N12 came out at < 0.39 µg/mL
